System: COMT (Rattus norvegicus, UniProt P22734)
Construct: The enzyme is extracted from rat liver; from tissue; host or cells: rat liver
Sequence (P22734 1-221 isoform P22734-2): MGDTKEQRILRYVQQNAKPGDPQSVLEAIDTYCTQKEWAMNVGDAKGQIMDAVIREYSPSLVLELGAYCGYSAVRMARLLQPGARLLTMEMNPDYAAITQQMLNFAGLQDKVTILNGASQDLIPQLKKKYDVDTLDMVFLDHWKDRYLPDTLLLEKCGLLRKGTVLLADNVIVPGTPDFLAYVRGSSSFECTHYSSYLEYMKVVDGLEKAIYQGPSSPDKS
Assay name: Inhibition of COMT in vitro (enzyme from rat liver, 4-nitrocatechol substrate)
Assay type: biochemical
Condition set: 10^-3 mole/l, in dimethylsulfoxide solution; read-out: percentages of inhibition (COMT)
Value type: inhibition at 1000 µM (%)

Molecule	Value unit	Observed
C[C@@H]1O[C@@H](OC[C@H]2O[C@@H](Oc3c(-c4ccc(O)c(O)c4)oc4cc(O)cc(O)c4c3=O)[C@H](O)[C@@H](O)[C@@H]2O)[C@@H]2OC(c3ccc(O)cc3)O[C@@H]2[C@H]1O (stereo partly shown) [No. 23]	%	80
C[C@@H]1O[C@@H](OC[C@H]2O[C@@H](Oc3c(-c4ccc(O)c(O)c4)oc4cc(O)cc(O)c4c3=O)[C@H](O)[C@@H](O)[C@@H]2O)[C@@H]2OC3(CCC4CCCCC4C3)O[C@@H]2[C@H]1O (stereo partly shown) [No. 28]	%	76
C[C@@H]1O[C@@H](OC[C@H]2O[C@@H](Oc3c(-c4ccc(O)c(O)c4)oc4cc(O)cc(O)c4c3=O)[C@H](O)[C@@H](O)[C@@H]2O)[C@@H]2OC(C)(c3ccc(Cl)cc3)O[C@@H]2[C@H]1O (stereo partly shown) [No. 37]	%	100
COc1ccc(C2(C)O[C@@H]3[C@@H](O)[C@H](C)O[C@@H](OC[C@H]4O[C@@H](Oc5c(-c6ccc(O)c(O)c6)oc6cc(O)cc(O)c6c5=O)[C@H](O)[C@@H](O)[C@@H]4O)[C@@H]3O2)cc1 (stereo partly shown) [No. 36]	%	91
Cc1ccc(C2(C)O[C@@H]3[C@@H](O)[C@H](C)O[C@@H](OC[C@H]4O[C@@H](Oc5c(-c6ccc(O)c(O)c6)oc6cc(O)cc(O)c6c5=O)[C@H](O)[C@@H](O)[C@@H]4O)[C@@H]3O2)cc1 (stereo partly shown) [No. 35]	%	90

###

System: Aldose Reductase (Bos taurus)
Construct: The enzyme is extracted from beef eye lenses; from tissue; host or cells: beef eye lenses
Assay name: Inhibition of aldose reductase in vitro (enzyme from beef eye lenses, glyceraldehyde substrate)
Assay type: biochemical
Condition set: 10^-4 mole/l, in DMF solution; read-out: percentages of inhibition (aldose reductase)
Value type: inhibition at 100 µM (%)

Compound	inhibition at 100 µM [%]
Cc1ccc(C2(C)O[C@@H]3[C@@H](O)[C@H](C)O[C@@H](OC[C@H]4O[C@@H](Oc5c(-c6ccc(O)c(O)c6)oc6cc(O)cc(O)c6c5=O)[C@H](O)[C@@H](O)[C@@H]4O)[C@@H]3O2)cc1 (stereo partly drawn)	100
O=c1ccc2cc(O[C@@H]3O[C@@H]4COC(c5ccc(O)c(O)c5)O[C@H]4[C@H](O)[C@H]3O)c(O)cc2o1 (stereo partly drawn)	71
C[C@@H]1O[C@@H](OC[C@H]2O[C@@H](Oc3c(-c4ccc(O)c(O)c4)oc4cc(O)cc(O)c4c3=O)[C@H](O)[C@@H](O)[C@@H]2O)[C@@H]2OC(C)(c3ccc(Cl)cc3)O[C@@H]2[C@H]1O (stereo partly drawn)	100
